B1: tRNA (parent)
chain: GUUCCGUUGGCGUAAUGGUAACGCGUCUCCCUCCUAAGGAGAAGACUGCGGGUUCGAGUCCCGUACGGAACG

variants of: B1; assay: yeast fitness, log relative to wild type (ln ratio); higher = fitter; tRNA-Arg(CCU), competitive growth, 37 C, 1 M NaCl
Reported yeast fitness (ln) by item:

{"mutant_label": "G6A C27U C46U A70U", "yeast fitness (ln)": -0.144}
{"mutant_label": "G1A U2G A70U", "yeast fitness (ln)": -0.124}
{"mutant_label": "G1A G6U A69G A70G", "yeast fitness (ln)": -0.198}
{"mutant_label": "G6U C27U C66A A70U", "yeast fitness (ln)": -0.17}
{"mutant_label": "G1A U2G C66A A69G A70G C71U", "yeast fitness (ln)": -0.235}
{"mutant_label": "U2G C66A A70U C71U", "yeast fitness (ln)": -0.0556}
{"mutant_label": "G1A G6U C27U A43C C46U C66U A69G A70G", "yeast fitness (ln)": -0.353}
{"mutant_label": "C27U A43C C66U A69G", "yeast fitness (ln)": -0.384}
{"mutant_label": "G1A G6A C66U A70G", "yeast fitness (ln)": -0.184}
{"mutant_label": "G1A U2C G6U C66A A69G A70G", "yeast fitness (ln)": -0.126}
{"mutant_label": "U2G G6A A43C C66U A69G A70U C71U", "yeast fitness (ln)": -0.407}
{"mutant_label": "U2G G6A C46U C66A A70G", "yeast fitness (ln)": -0.056}
{"mutant_label": "U2G A43C C46U C66U A69G A70G C71U", "yeast fitness (ln)": -0.244}
{"mutant_label": "G1A U2C G6A C46U C66A A70U C71U", "yeast fitness (ln)": -0.102}
{"mutant_label": "U2C G6U C27U A43C C46U C66A A70G C71U", "yeast fitness (ln)": -0.0138}
{"mutant_label": "G1A G6A C46U A69G A70U", "yeast fitness (ln)": -0.0698}
{"mutant_label": "G6A C27U A43C C46U A70G C71U", "yeast fitness (ln)": -0.25}
{"mutant_label": "U2C G6U A43C C46U C66U", "yeast fitness (ln)": -0.158}
{"mutant_label": "G1A G6A C27U C66U A69G A70U", "yeast fitness (ln)": -0.324}
{"mutant_label": "G1A U2C G6U C27U C46U", "yeast fitness (ln)": -0.0885}
{"mutant_label": "G6U A43C C46U C66U A69G", "yeast fitness (ln)": -0.261}
{"mutant_label": "G1A U2C C27U A43C A70G", "yeast fitness (ln)": -0.0774}
{"mutant_label": "U2C G6U C66U", "yeast fitness (ln)": -0.0417}
{"mutant_label": "U2C G6A C66U A70U", "yeast fitness (ln)": -0.0364}
{"mutant_label": "U2G G6U C27U A43C A69G C71U", "yeast fitness (ln)": -0.439}
{"mutant_label": "U2G G6U C66U A70U", "yeast fitness (ln)": -0.0342}
{"mutant_label": "U2C G6U C27U A43C C46U A69G A70G C71U", "yeast fitness (ln)": -0.188}
{"mutant_label": "U2G C27U A43C C66U A70G C71U", "yeast fitness (ln)": -0.331}
{"mutant_label": "G1A U2G G6U A43C A69G A70U C71U", "yeast fitness (ln)": -0.428}
{"mutant_label": "G1A U2C G6A C27U A43C C46U C66U A70G C71U", "yeast fitness (ln)": -0.0245}
{"mutant_label": "G6A C27U C66U A69G A70U", "yeast fitness (ln)": -0.214}
{"mutant_label": "G1A U2G G6A C66U A69G A70U C71U", "yeast fitness (ln)": -0.33}
{"mutant_label": "U2G G6A C71U", "yeast fitness (ln)": -0.0566}
{"mutant_label": "G6A A43C C46U A69G C71U", "yeast fitness (ln)": -0.171}
{"mutant_label": "U2C G6A A43C C66U A70G", "yeast fitness (ln)": -0.0213}
{"mutant_label": "G1A U2G G6U C46U C66A A70U C71U", "yeast fitness (ln)": 0.00484}
{"mutant_label": "U2C G6A C27U C46U C66A C71U", "yeast fitness (ln)": -0.101}
{"mutant_label": "G1A G6A C27U C46U A69G A70G", "yeast fitness (ln)": -0.224}
{"mutant_label": "G1A U2G G6A C27U C46U A69G A70G C71U", "yeast fitness (ln)": -0.332}
{"mutant_label": "G1A U2G G6A C27U A43C C46U A69G A70G", "yeast fitness (ln)": -0.382}
{"mutant_label": "A43C C46U C71U", "yeast fitness (ln)": -0.00724}
{"mutant_label": "G1A U2G C27U", "yeast fitness (ln)": -0.0429}
{"mutant_label": "G1A G6U C27U A43C C46U C66U A70U", "yeast fitness (ln)": -0.368}
{"mutant_label": "G1A U2G G6A C66U C71U", "yeast fitness (ln)": -0.146}
{"mutant_label": "G1A U2G G6U A43C A70G C71U", "yeast fitness (ln)": -0.323}
{"mutant_label": "U2C C66A A69G A70U C71U", "yeast fitness (ln)": -0.496}
